Recorded values, source patent US12624034B2.

# Measured target: AKT2 (Homo sapiens, UniProt P31751)
# Construct: expressed in transfected cells; host or cells: HEK293
# Sequence (P31751 whole entry): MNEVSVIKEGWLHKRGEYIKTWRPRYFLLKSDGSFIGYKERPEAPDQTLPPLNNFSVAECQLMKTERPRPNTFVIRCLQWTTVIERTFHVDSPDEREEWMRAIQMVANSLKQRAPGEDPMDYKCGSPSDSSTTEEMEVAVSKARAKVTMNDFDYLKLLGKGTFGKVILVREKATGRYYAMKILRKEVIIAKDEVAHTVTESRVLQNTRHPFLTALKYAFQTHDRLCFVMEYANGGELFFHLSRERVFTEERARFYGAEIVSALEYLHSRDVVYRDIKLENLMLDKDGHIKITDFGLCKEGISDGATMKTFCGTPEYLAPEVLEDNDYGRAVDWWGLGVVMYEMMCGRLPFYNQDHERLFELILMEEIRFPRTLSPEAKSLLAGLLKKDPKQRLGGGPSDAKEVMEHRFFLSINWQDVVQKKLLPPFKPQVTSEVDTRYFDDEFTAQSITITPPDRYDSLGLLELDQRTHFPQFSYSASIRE
# Protocol: Live cell AKT2 target engagement by NanoBRET competitive probe displacement in HEK293 cells
# Assay type: binding
# Experimental setup: NanoBRET competitive probe displacement, live HEK293 cells, 2 h at 37° C.; read-out: AKT2 IC50
So I've got a bunch of molecules here, and I need their pIC50 values.
Numbers only, as −log10 of the molar value.

Molecule	Recorded value
COc1cccc(-c2ccc3nc(-c4cccnc4N)n(-c4ccc5c(c4)CC(F)[C@@H]5NC4CCN(C(=O)C5CC5)CC4)c3n2)n1 (stereo partly shown)	6.14
Nc1ncccc1-c1nc2ccc(-n3ccc(Oc4ccncc4)n3)nc2n1-c1ccc2c(c1)CC[C@@H]2NC1CCN(C(=O)C2CC2)CC1	5.48
N[C@@H]1c2ccc(-n3c(-c4ccccc4F)nc4ccc(-n5ccc(N6CCOCC6)n5)nc43)cc2CC1F (stereo partly shown)	6.75
Nc1ncccc1-c1nc2ccc(-n3cccn3)nc2n1-c1ccc2c(c1)CC[C@@H]2NC1CCc2cc(O)ccc21 (stereo partly shown) [Compound 498]	6.21
Nc1ncccc1-c1nc2ccc(-n3cccn3)nc2n1-c1ccc2c(c1)CC[C@@H]2NC(=O)c1cc(C(F)F)ns1	6.88
Nc1ncccc1-c1nc2ccc(-n3cccn3)nc2n1-c1ccc2c(c1)CC[C@@H]2NC1Cc2cccnc2C1 (stereo partly shown) [Compound 530]	6.37
CC(C)C(=O)N1CCC(N[C@@H]2c3ccc(-n4c(-c5cccnc5N)nc5ccc(-n6cccn6)nc54)cc3CC2F)CC1 (stereo partly shown)	5.63
Nc1ncccc1-c1nc2ccc(-n3cccn3)nc2n1-c1ccc2c(c1)CC[C@@H]2NC1CCN(C(=O)C2CC2)C1 (stereo partly shown) [Compound 461]	5.52
Nc1ncccc1-c1nc2ccc(-n3ccc(OC(F)F)n3)nc2n1-c1ccc2c(c1)CC[C@@H]2NC1[C@@H]2COC[C@H]1CN(C(=O)C1CC1)C2 (stereo partly shown) [Compound 561]	5.51
CSc1ccn(-c2ccc3nc(-c4cccnc4N)n(-c4ccc5c(c4)CC[C@@H]5NC4CCN(C(=O)C5CC5)CC4)c3n2)n1	5.89

For each of the molecules below, note its pIC50.
1. Cc1ccc(C(=O)N[C@H]2CCc3cc(-n4c(-c5cccnc5N)nc5ccc(-c6ncn(C)n6)nc54)ccc32)cn1
2. Nc1ncccc1-c1nc2ccc(-n3ccc(OC(F)F)n3)nc2n1-c1ccc2c(c1)CC[C@@H]2NC(=O)c1ccc(C2CC2)nc1
3. Nc1ncccc1-c1nc2ccc(-n3nccn3)nc2n1-c1ccc2c(c1)CC[C@@H]2NC(=O)c1ccns1

1: 5.52; 2: 7.82; 3: 5.83

---

# Measured target: AKT1 WT (Homo sapiens)
# Construct: expressed in transfected cells; host or cells: HEK293
# Protocol: Live cell AKT1 WT target engagement by NanoBRET competitive probe displacement in HEK293 cells
# Format: binding
# Experimental setup: NanoBRET competitive probe displacement, live HEK293 cells, 2 h at 37° C.; read-out: AKT1 WT IC50
So I've got a bunch of molecules here, and I need their pIC50 values.
Give bare numbers, as −log10 of the molar value.

Molecule	pIC50
Cc1ccc(C(=O)N[C@H]2CCc3cc(-n4c(-c5cccnc5N)nc5ccc(-n6cnc(C)n6)nc54)ccc32)cn1 [Compound 417]	7.71
CN(C)C(=O)N1CCC(N[C@H]2CCc3cc(-n4c(-c5cccnc5N)nc5ccc(-n6cccn6)nc54)ccc32)CC1 [Compound 394]	7.00
Nc1ncccc1-c1nc2ccc(-n3cccn3)nc2n1-c1ccc2c(c1)CC[C@@H]2NC1CCN(C(=O)C(F)F)CC1 [Compound 475]	6.89
Cc1cc(C(F)F)ncc1C(=O)N[C@H]1CCc2cc(-n3c(-c4cccnc4N)nc4ccc(-n5nccn5)nc43)ccc21 [Compound 397]	7.78
Cc1nc(C(F)F)sc1C(=O)N[C@H]1CCc2cc(-n3c(-c4cccnc4N)nc4ccc(-n5nccn5)nc43)ccc21 [Compound 541]	8.26
Nc1ncccc1-c1nc2ccc(-n3cccn3)nc2n1-c1ccc2c(c1)CC[C@@H]2NC1CCc2cnccc21 (some centres unmarked) [Compound 473]	7.72

For each of the molecules below, note its pIC50.
1. Cc1ccc(C(=O)N[C@H]2CCc3cc(-n4c(-c5ccccc5F)nc5ccc(-n6cccn6)nc54)ccc32)cn1 [Compound 401]
2. Cn1ccc(N2CCC(N[C@@H]3c4ccc(-n5c(-c6cccnc6N)nc6ccc(-n7cccn7)nc65)cc4CC3F)CC2)n1 (some centres unmarked) [Compound 519]
3. COc1csc(-c2ccc3nc(-c4cccnc4N)n(-c4ccc5c(c4)CC(F)[C@@H]5NC4CCN(C(=O)C5CC5)CC4)c3n2)n1 (some centres unmarked) [Compound 559]
4. Nc1ncccc1-c1nc2ccc(-n3ccc(OC4CCOCC4)n3)nc2n1-c1ccc2c(c1)CC[C@@H]2NC1CCN(C(=O)C2CC2)CC1 [Compound 517]
5. CC(C)C(=O)N1CCC(N[C@@H]2c3ccc(-n4c(-c5cccnc5N)nc5ccc(-n6cccn6)nc54)cc3CC2F)CC1 (some centres unmarked) [Compound 542]
6. Nc1ncccc1-c1nc2ccc(-n3nccn3)nc2n1-c1ccc2c(c1)CC[C@@H]2NC(=O)c1cnc(C(F)F)o1 [Compound 538]
7. Nc1ncccc1-c1nc2ccc(-n3cccn3)nc2n1-c1ccc2c(c1)CC[C@@H]2N1Cc2ccncc2C1 [Compound 494]

1. 7.96
2. 7.41
3. 8.25
4. 7.50
5. 6.93
6. 7.60
7. 6.70

---

# Measured target: AKT2 (Homo sapiens, UniProt P31751)
# Construct: expressed in transfected cells; host or cells: HEK293
# Protocol: Live cell AKT2 target engagement by NanoBRET competitive probe displacement in HEK293 cells
# Assay type: binding
# Experimental setup: NanoBRET live cell target engagement, HEK293 cells, 2 h at 37° C.; read-out: AKT2 IC50
So I've got a bunch of compounds here, and I need their IC50 values.
Numbers only, in nM.

For each of the compounds below, note its IC50.
1. C#Cc1ncccc1C(=O)N[C@H]1CCc2cc(-n3c(-c4cccnc4N)nc4ccc(-n5cccn5)nc43)ccc21 [Compound 113]
2. Nc1ncccc1-c1nc2ccc(-n3cccn3)nc2n1-c1ccc2c(c1)CC[C@@H]2NC(=O)c1ccc(CF)nc1 [Compound 98]
3. Nc1ncccc1-c1nc2ccc(-n3cccn3)nc2n1-c1ccc2c(c1)CC[C@@H]2NC(=O)c1ccnnc1 [Compound 33]
4. Nc1ncccc1-c1nc2ccc(-n3cccn3)nc2n1-c1ccc2c(c1)CC[C@@H]2n1ccnn1 [Compound 188]
5. CN(C)[C@H]1CCc2cc(-n3c(-c4cccnc4N)nc4ccc(-n5cccn5)nc43)ccc21 [Compound 340]
6. CC(=O)Nc1c(F)cc(C(=O)N[C@H]2CCc3cc(-n4c(-c5cccnc5N)nc5ccc(-n6cccn6)nc54)ccc32)cc1F [Compound 294]
7. Nc1ncccc1-c1nc2ccc(-n3cccn3)nc2n1-c1ccc2c(c1)CC[C@@H]2NC(=O)c1cnc2c(c1)CCC2(F)F [Compound 66]

1: 537; 2: 52.6; 3: 321; 4: 650; 5: 1010; 6: 29.1; 7: 15

For each of the compounds below, note its IC50.
1. Cc1ccc(C(=O)N[C@H]2CCc3cc(-n4c(-c5cccnc5N)nc5ccc(-n6cccn6)nc54)ccc32)cn1 [Compound 26]
2. COc1ccc(C(=O)N[C@H]2CCc3cc(-n4c(-c5cccnc5N)nc5ccc(-n6cccn6)nc54)ccc32)cc1 [Compound 12]
3. CC(=O)N[C@H]1CCc2cc(-n3c(-c4cccnc4N)nc4ccc(-n5cccn5)nc43)ccc21 [Compound 1]

1: 69.6; 2: 38.1; 3: 4310

For each of the compounds below, note its IC50.
1. Cc1ncc(F)cc1C(=O)N[C@H]1CCc2cc(-n3c(-c4cccnc4N)nc4ccc(-n5cccn5)nc43)ccc21 [Compound 159]
2. Nc1ncccc1-c1nc2ccc(-n3cccn3)nc2n1-c1ccc2c(c1)CC[C@@H]2NC1CCN(C(=O)C2(F)CC2)CC1 [Compound 370]

1: 22.1; 2: 1720

---

# Measured target: AKT1 WT (Homo sapiens, UniProt P31749)
# Construct: expressed in transfected cells; host or cells: HEK293
# Sequence (P31749 whole entry): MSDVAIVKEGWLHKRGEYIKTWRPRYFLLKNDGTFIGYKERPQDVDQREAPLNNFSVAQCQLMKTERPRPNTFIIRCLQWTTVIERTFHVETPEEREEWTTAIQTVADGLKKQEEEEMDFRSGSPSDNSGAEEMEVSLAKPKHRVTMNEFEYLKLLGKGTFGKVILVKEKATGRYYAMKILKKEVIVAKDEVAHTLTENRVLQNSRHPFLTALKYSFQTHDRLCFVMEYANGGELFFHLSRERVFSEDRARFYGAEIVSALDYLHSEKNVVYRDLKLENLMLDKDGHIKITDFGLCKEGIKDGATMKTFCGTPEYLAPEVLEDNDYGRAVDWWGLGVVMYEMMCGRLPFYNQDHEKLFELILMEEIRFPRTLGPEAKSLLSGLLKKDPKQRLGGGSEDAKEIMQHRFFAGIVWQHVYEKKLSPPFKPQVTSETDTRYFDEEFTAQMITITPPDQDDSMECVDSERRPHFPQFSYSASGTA
# Protocol: Live cell AKT1 WT target engagement by NanoBRET competitive probe displacement in HEK293 cells
# Type: binding
# Experimental setup: NanoBRET live cell target engagement, HEK293 cells, 2 h at 37° C.; read-out: AKT1 WT IC50
Assay readout: pIC50
Give bare numbers, as −log10 of the molar value.

Look over these answered cases.
Compound	pIC50
Nc1ncccc1-c1nc2ccc(-n3cccn3)nc2n1-c1ccc2c(c1)CC[C@@H]2NC(=O)c1ccc2ncnn2c1 [Compound 237]	8.14
Nc1ncccc1-c1nc2ccc(-n3cccn3)nc2n1-c1ccc2c(c1)CC[C@@H]2NC(=O)c1ccnc(OC2COC2)c1 [Compound 164]	7.82
Nc1ncccc1-c1nc2ccc(-n3cccn3)nc2n1-c1ccc2c(c1)CC[C@@H]2NC(=O)c1cnc2cccn2c1 [Compound 291]	8.29
Cc1cnc(C)c(C(=O)N[C@H]2CCc3cc(-n4c(-c5cccnc5N)nc5ccc(-n6cccn6)nc54)ccc32)c1 [Compound 137]	7.67
Nc1ncccc1-c1nc2ccc(-n3nccn3)nc2n1-c1ccc2c(c1)CC[C@@H]2NC(=O)c1cccnc1 [Compound 58]	7.51

For each of the compounds below, note its pIC50.
1. Nc1ncccc1-c1nc2ccc(-n3cccn3)nc2n1-c1ccc2c(c1)CC[C@@H]2NC(=O)c1ccc(OC(F)(F)F)nc1 [Compound 68]
2. Cc1ccc(C(=O)N[C@H]2CCc3cc(-n4c(-c5cccnc5N)nc5ccc(C#Cc6ncco6)nc54)ccc32)cn1 [Compound 341]
3. Cn1nccc1Cc1nncn1[C@H]1CCc2cc(-n3c(-c4cccnc4N)nc4ccc(-n5cccn5)nc43)ccc21 [Compound 222]
4. Cn1nc(C(=O)N[C@H]2CCc3cc(-n4c(-c5cccnc5N)nc5ccc(-n6cccn6)nc54)ccc32)cc1C(F)F [Compound 266]
5. Nc1ncccc1-c1nc2ccc(-n3cccn3)nc2n1-c1ccc2c(c1)CC[C@@H]2n1ccnc1 [Compound 273]
6. Cc1ncccc1C(=O)N[C@H]1CCc2cc(-n3c(-c4cccnc4N)nc4c(C)cc(-n5cccn5)nc43)ccc21 [Compound 100]
7. Cc1ccc(C(=O)N[C@H]2CCc3cc(-n4c(-c5cccnc5N)nc5ccc(-c6ccn(C(F)F)n6)nc54)ccc32)cn1 [Compound 73]
8. Nc1ncccc1-c1nc2ccc(-n3cccn3)nc2n1-c1ccc2c(c1)CC[C@@H]2n1cc(C2CC2)nn1 [Compound 221]

8.28
6.41
6.84
7.74
7.94
7.76
8.04
7.96

Quick one: give measured pIC50 for Nc1ncccc1-c1nc2ccc(-n3cccn3)nc2n1-c1ccc2c(c1)CC[C@@H]2n1cc(C2COC2)nn1 [Compound 220]
7.17
